Quick reference for pKd among some binders
# TARGET_OR_SYSTEM: … (Plasmodium falciparum)
# EXPERIMENT_SUMMARY: SPR, antibody on chip
For clarity, pKd is expressed as the negative log10 of concentration in mol/L.

Solved cases below.
{"columns": ["BINDER", "EXPERIMENTAL_READOUT", "OBS_VALUE"],
 "data": [
  ["AB-007036 (antibody, V domains shown) VH: QMQLVESGGGVVQPGRSLRLSCTASGFTFSTYAMHWVRQSPGQGLQWVAVISYDSTNKYYEDSVRGRFTISRDNSKNTLYLQMNSLRAEDTAVYYCARDGYSSSFFDFWGQGTLVTVSS VL: DIQMTQSPSTLSASVGDRVAITCRASQSISRWLAWYQQQPGKAPKLLMSGASVLESGVPSRFSGSGSGTEFTLTISSLQPDDFATYYCQHYNSYFVTFGQGTKVEIK", "pKd", 4.76],
  ["AB-007031 (antibody, V domains shown) VH: QMQLVESGGGVVQPGRSLRLSCTASGFTFSTYAMHWVRQSPGQGLQWVAVISYHSTNKYYEDSVRGRFTISRDNSKNTLYLQMNSLRAEDTAVYYCARDGYSSSFFDFWGQGTLVTVSS VL: DIQMTQSPSTLSASVGDRVAITCRASQSISRWLAWYQQQPGKAPKLLISGASVLESGVPSRFSGSGSGTEFTLTISSLQPDDFATYYCQHYNSYFVTFGQGTKVEIK", "pKd", 5.28],
  ["AB-007040 (antibody, V domains shown) VH: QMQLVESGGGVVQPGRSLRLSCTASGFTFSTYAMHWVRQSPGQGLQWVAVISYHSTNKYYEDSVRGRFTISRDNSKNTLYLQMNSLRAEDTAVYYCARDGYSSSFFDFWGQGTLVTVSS VL: DIQMTQSPSTLSASVGDRVAITCRASQSISRWLAWYQQQPGKAPKLLMSGASVLESGVPSRFSGSGSGTEFTLTISSLQPDDFATYYCQHYNSYYVTFGQGTKVEIK", "pKd", 5.43],
  ["AB-007051 (antibody, V domains shown) VH: QMQLVESGGGVVQPGRSLRLSCTASGFTFSTYAMHWVRQSPGQGLQWVAVISYHSRNKYYEDSVRGRFTISRDNSKNTLYLQMNSLRAEDTAVYYCARDGYSSSFFDFWGQGTLVTVSS VL: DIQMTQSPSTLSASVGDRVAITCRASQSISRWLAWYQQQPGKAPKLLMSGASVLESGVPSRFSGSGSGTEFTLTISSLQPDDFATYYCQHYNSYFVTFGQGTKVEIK", "pKd", 5.05]
]}

Please examine the following record next.
Assign pKd to the following record: AB-007043 (antibody, V domains shown) VH: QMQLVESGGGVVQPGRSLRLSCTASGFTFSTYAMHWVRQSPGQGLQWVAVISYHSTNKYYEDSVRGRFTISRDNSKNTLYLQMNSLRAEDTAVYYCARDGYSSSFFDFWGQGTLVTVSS VL: DIQMTQSPSTLSASVGDRVAITCRASQSISRWLAWYQQQPGKAPKLLMSGASVLEDGVPSRFSGSGSGTEFTLTISSLQPDDFATYYCQHYNSYFVTFGQGTKVEIK 4.79
